- System: α7 integrin (LacZ reporter in α7+/LacZ myotubes)
- Assay: Myotube α7 integrin FDG assay (Burkin assay in myotubes, 96-well)
- Assay type: cell-based, mouse
- Test Context: myotubes, 40 uM
Could you please report measured Burkin Assay in Myotubes, α7 integrin LacZ reporter signal relative to DMSO for the items listed next?
// response body must contain only the number

// query Burkin Assay in Myotubes, α7 integrin LacZ reporter signal relative to DMSO value for entry "CN(C)C1(CN=Cc2cc(Cl)cc([N+](=O)[O-])c2O)CCCCC1" 0.8546

Also need C#CC1(O)CCC2C3CCC4=C/C(=N/OCC(=O)NCC(=O)NC(C(=O)O)C(C)C)CC[C@]4(C)C3CC[C@@]21C (stereo partly drawn) , thanks. 1.058

Also need "COc1ccc(Cl)cc1NC(=O)CC(=O)Nc1cc(Cl)ccc1OC" , thanks. 0.81

Also need "CCc1nnc(NC(=O)c2ccc(S(=O)(=O)NCC(C)C)cc2)s1" , thanks. 0.9115

Also need "O=C1CCc2cc(S(=O)(=O)Nc3ccc(C(F)(F)F)cc3)cc3c2N1CC3" , thanks. 0.9787

Also need "Cc1cccc(Cn2cnc3c(nnn3Cc3ccc(Cl)cc3)c2=O)c1" , thanks. 0.8225

Also need "CC1(C)CC(=O)C=C(Nc2ccc(C(=O)O)c(O)c2)C1" , thanks. 1.116

Also need COc1ccc(N2CCN(CCC3Oc4cc([N+](=O)[O-])ccc4NC3=O)CC2)cc1 (stereo not drawn) , thanks. 0.8433

Also need Cc1cccc(NC(=O)c2ccc(N3C(=O)C4CCCCC4C3=O)cc2)c1C (stereo not drawn) , thanks. 0.9652

Also need CC1CCCCC1NC(=O)CSc1nnc(COc2ccc(Cl)cc2)o1 (stereo not drawn) , thanks. 0.7514

Also need "Cc1cccn2c(=O)c3cc(C(=O)NC4CCCCC4)n(C)c3nc12" , thanks. 0.6986

Also need "CC(C)(C)Nc1nc(-c2ccc3c(c2)CCN3C(=O)C2CC2)cs1" , thanks. 0.4743

Also need "Br.COc1ccc(C(=O)CN2CCCCC2)cc1" , thanks. 0.376

Also need "Cc1cccc(C)c1NCC(=O)N1CCN(Cc2ccccc2)CC1.Cl" , thanks. 0.9818

Also need "O=C(O)CC1(c2ccccc2)C(=O)c2ccccc2C1=O" , thanks. 0.5548

Also need "Nc1cccc(/C=C/C(=O)O)c1" , thanks. 0.7756

Also need "O=C(CCc1ccccc1)c1nnc(-c2ccccc2)o1" , thanks. 1.055

Also need "N#Cc1ccc(Sc2nc3ccccc3[nH]2)cc1C#N" , thanks. 0.8855

Also need Cc1ccc(C(=O)C(C)OC(=O)CNC(=O)c2ccc(Br)o2)cc1 (stereo not drawn) , thanks. 0.92

Also need "COc1ccc(S(=O)(=O)N2CCCCCC2)cc1C(=O)N1CCN(c2ccccc2O)CC1" , thanks. 0.5343

Also need CC(=O)C1=C(C)Nc2ncnn2C1c1ccc(C)cc1 (stereo not drawn) , thanks. 0.913

Also need "CCOc1ccc(Br)cc1S(=O)(=O)Nc1ccc(C(=O)Nc2ccccc2OC)cc1" , thanks. 0.7593

Also need CC(=O)Nc1ccc(N(C(=O)c2cnccn2)C(C(=O)NC2CCCCC2)c2ccc(F)cc2)cc1 (stereo not drawn) , thanks. 0.9539

Also need "COc1cc(NC(=O)OCc2ccccc2)c2ncccc2c1" , thanks. 0.7617

====

- System: α7 integrin (LacZ reporter in α7βgal+/− myoblasts)
- Assay: Myoblast α7+/LacZ integrin FDG assay (Burkin assay in myoblasts, 96-well)
- Format: cell-based, mouse
- Test Context: 1 uM; α7+/LacZ myoblasts, 96-well
Mark each entry 1.0 if its Burkin Assay in Myoblasts, value relative to DMSO sits below 1, and 0.0 for all others.

Burkin Assay in Myoblasts, value relative to DMSO strictly < 1 for this compound? COc1ccccc1N(C(=O)CNC(=O)c1ccco1)C(C(=O)NC1CCCCC1)c1ccncc1 (centres unmarked) 1.0

Also need "N/C(=N\OC(=O)COc1cc(Cl)c(Cl)cc1Cl)c1ccncc1" , thanks. 1.0

Also need "COc1cc(/C=C/c2nc(-c3ccccc3O)n[nH]2)cc(OC)c1OC" , thanks. 1.0

Also need Cc1cc(NC(=O)CCC(=O)N(Cc2cccnc2)C(C(=O)NC(C)(C)C)c2ccccc2Cl)no1 (centres unmarked) , thanks. 0.0

Also need "O=C(O)c1cc(-c2ccccc2Cl)n(-c2cccc(Cl)c2)n1" , thanks. 1.0

Also need "C/C(=N/OC(=O)CC(C)C)c1cc(-c2ccc(Cl)cc2)no1" , thanks. 1.0

Also need "O=C(Nc1ccc(Cl)cc1N1CCOCC1)C1CCCCC1" , thanks. 0.0

====

Could you please report measured CMV-LACZ in Myotubes, signal relative to DMSO for the items listed next?
- Test system: β-galactosidase in CMV-LacZ C2C12 myotubes
- Assay: CMV-LacZ secondary screen in C2C12 myotubes (β-Gal stabilizing assay)
- Assay type: cell-based, mouse
- Test Context: 0.5 uM; C2C12 CMV-LacZ myotubes; fold relative to DMSO
// response body must contain only the number

Entry "Cc1ccc2c(c1)/C(=C/c1ccco1)C(=O)N2" , system β-galactosidase in CMV-LacZ C2C12 myotubes: what CMV-LACZ in Myotubes, signal relative to DMSO was measured? 1.0248

Also need "CC1(C)Cc2ccccc2-c2nc3n(c(=O)c21)CCS3" , thanks. 0.9495

Also need "O=C(COc1ccc(Cl)cc1)N1CCN(C2CCCC2)CC1.O=C(O)C(=O)O" , thanks. 1.0037

Also need O=C(NCCc1ccccc1)C1CCC(=O)N1C1CCCC1 (stereo not drawn) , thanks. 1.1543

Also need "Cc1ccccc1-n1c(Cc2cccs2)n[nH]c1=S" , thanks. 1.3844

Also need "CCOc1cc(C)c(S(=O)(=O)N2CCCCC2)cc1C" , thanks. 0.9771

Also need "Cc1ccc(C(=O)N2CCN(S(=O)(=O)N3CCOCC3)CC2)cc1" , thanks. 1.0924

Also need "Cn1c(O)c(C(C#N)=C2N=c3ccccc3=N2)c2ccccc21" , thanks. 0.9705

Also need CC1CCCCC1NC(=O)CSc1nnc(COc2ccc(Cl)cc2)o1 (stereo not drawn) , thanks. 1.0895

====

- Test system: α7 integrin (LacZ reporter in α7+/LacZ myotubes)
- Assay: Myotube α7 integrin FDG assay (Burkin assay in myotubes, 96-well)
- Type: cell-based, mouse
- Test Context: 1 uM; SU9516 analogs, 96-well, N=3-6
Value Kind: Burkin Assay in Myotubes, value relative to DMSO
// response body must contain only the number

Entry "COc1cc(OC)c(/C=C2/C(=O)Nc3ccccc32)c(OC)c1" , system α7 integrin (LacZ reporter in α7+/LacZ myotubes): what Burkin Assay in Myotubes, value relative to DMSO was measured? 1.051

Also need "O=C1C(c2c(O)[nH]c3ccccc23)=Nc2ccccc21" , thanks. 0.9377

Also need "Cc1ccc2c(c1)/C(=C/c1ccccc1C)C(=O)N2" , thanks. 0.8962

Also need "NC(=O)COc1ccc(C(=O)/C=C2/C(=O)Nc3ccccc32)cc1" , thanks. 1.039

Also need "O=C1Nc2ccccc2/C1=C/c1ccnc2ccccc12" , thanks. 1.118

Also need "COc1ccccc1/C=C1\C(=O)Nc2ccccc21" , thanks. 1.1156

Also need "Cc1ccc2c(c1)/C(=C/c1ccccc1F)C(=O)N2" , thanks. 0.9174

Also need "Cc1[nH]c(C=C2C(=O)Nc3ccccc32)c(C)c1CCC(=O)O" , thanks. 1.105

Also need "O=C1Nc2ccccc2/C1=C/c1c[nH]cn1" , thanks. 1.025

====

Could you please report measured CMV-LACZ in Myoblasts, value relative to DMSO for the items listed next?
- System: β-galactosidase in CMV-LacZ C2C12 myoblasts
- Assay: CMV-LacZ secondary screen in C2C12 myoblasts (β-Gal stabilizing assay)
- Type: cell-based, mouse
- Test Context: 20 uM; SU9516 analogs, C2C12 CMV-LacZ, N=2
// response body must contain only the number

// query CMV-LACZ in Myoblasts, value relative to DMSO value for entry O=Nc1c(-c2c(O)[nH]c3cc(Br)ccc23)[nH]c2ccccc12 [NCGC00094112-04] 0.4403

Also need NC(=O)COc1ccc(C(=O)/C=C2/C(=O)Nc3ccccc32)cc1 [MLS001214300-01] , thanks. 0.4007

Also need CCN(CC)CCNC(=O)c1c(C)[nH]c(/C=C2\C(=O)Nc3ccc(F)cc32)c1C [NCGC00164631-04] , thanks. 0.2323

Also need CCO/C(C)=C1\C(=O)Nc2ccccc21 [MLS000554109-01] , thanks. 0.9853

Also need O=Nc1c(-c2c(O)[nH]c3ccccc23)[nH]c2ccccc12 [NCGC00015545-07] , thanks. 0.5257

Also need Cc1ccccc1/C=C1\C(=O)Nc2ccc(F)cc21 [MLS001197838-01] , thanks. 1.1615

Also need Cc1cc(C)c(/C=C2\C(=O)Nc3ccccc32)[nH]1 [NCGC00094381-04] , thanks. 0.9330

Also need Cc1ccc(/C=C2\C(=O)Nc3ccccc32)o1 [MLS000391588-01] , thanks. 1.4307

Also need O=C1Nc2ccccc2/C1=C\c1cccn1-c1ccc(OC(F)(F)F)cc1 [MLS000546982-01] , thanks. 0.9512

Also need CCOc1cc2c3c(c1)C(C)=CC(C)(C)N3C(=O)C2=O [MLS000710233-01] , thanks. 0.8530

Also need COc1ccc(C(=O)/C=C2/C(=O)Nc3ccccc32)cc1OC [MLS001163860-01] , thanks. 0.3425

Also need Cc1cc(C)c(/C=C2\C(=O)Nc3ccccc32)[nH]1 [NCGC00094381-03] , thanks. 0.7777

Also need O=C1Nc2ccccc2/C1=C/c1ccccc1Cl [MLS001202425-01] , thanks. 0.9081

Also need O=C1Nc2ccccc2/C1=C/c1cnc(-c2ccccc2)[nH]1 [MLS000834756-01] , thanks. 0.8022

Also need CCn1c(O)c(C(C#N)=C2N=c3ccccc3=N2)c2ccccc21 [MLS000564846-01] , thanks. 1.2363

Also need Cc1cc(C)c(/C=C2\C(=O)Nc3ccccc32)[nH]1 [NCGC00094381-05] , thanks. 0.7147

Also need Cc1ccc2c(c1)/C(=C/c1ccccc1F)C(=O)N2 [MLS001202330-01] , thanks. 0.9511

Also need O=Nc1c(-c2c(O)[nH]c3ccccc23)[nH]c2ccccc12 [NCGC00015545-02] , thanks. 0.2907

Also need C=CCOc1ccc(C(=O)/C=C2/C(=O)Nc3ccccc32)cc1 [MLS001214264-01] , thanks. 0.3870
